- Test system: HCI11 (cells of an ER-positive luminal breast cancer xenograft)
- ASSAY PROTOCOL: cell viability (% of vehicle); higher = less cytotoxic;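 also: PDX cells carrying CMV promoter-driven luciferase, viability read as total photon flux per second by IVIS imaging following D-luciferin, vehicle control 0.1% DMSO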
- CONDITION LABEL: 10 µM; 72 h
Record form. Attribute: cell viability. Fill in for each entry.
The reply should be a number, written without any unit.

**Q:** # get_value(readout='cell viability', item= Cc1cc(C(C#N)c2ccc(Cl)cc2)c(Cl)cc1NC(=O)c1cc(I)cc(I)c1O (stereo not drawn) )
**A:** 85.7

**Q:** Now consider Cc1ccc(-n2nccn2)c(C(=O)N2CCN(c3nc4cc(Cl)ccc4o3)CCC2C)c1 (stereo not drawn) and answer again.
**A:** 93.5

**Q:** Now consider CCC(COC(=O)c1cc(OC)c(OC)c(OC)c1)(c1ccccc1)N(C)C (stereo not drawn) and answer again.
**A:** 92.9

====

- Tested on: HCI09 (cells of a triple-negative luminal androgen receptor type breast cancer xenograft)
- ASSAY PROTOCOL: cell viability (% of vehicle); higher = less cytotoxic
- CONDITION LABEL: 10 µM; 72 h
Record form. Attribute: cell viability. Fill in for each entry.
The reply should be a number, written without any unit.

**Q:** # get_value(readout='cell viability', item= CCC1(c2ccc(N)cc2)CCC(=O)NC1=O (stereo not given) [Aminoglutethimide] )
**A:** 103

**Q:** Now consider `CC(C)N(CCNC(=O)CN1CCCC1=O)C(C)C` and answer again.
**A:** 101

**Q:** Now consider Br.CN1C2CC(OC(=O)C(CO)c3ccccc3)CC1C1OC12 (stereo not given) [Scopolamine hydrobromide] and answer again.
**A:** 91.5

**Q:** Now consider `CCC1=C[C@H]2CN3CCc4c([nH]c5ccccc45)[C@@](C(=O)OC)(C2)[C@@H]13` and answer again.
**A:** 99.5

**Q:** Now consider NC(=O)CN1CC(O)CC1=O (stereo not given) and answer again.
**A:** 98.3

**Q:** Now consider `Cc1cc(O)ccc1Cl` and answer again.
**A:** 88.6

**Q:** Now consider `CCNCC.O=C(O)Cc1ccccc1Nc1c(Cl)cccc1Cl` and answer again.
**A:** 88.7

**Q:** Now consider Cc1cccc(C(C)c2cnc[nH]2)c1C.Cl (stereo not given) [Dexmedetomidine HCl] and answer again.
**A:** 91.2

**Q:** Now consider `NCC1(CC(=O)O)CCCCC1` and answer again.
**A:** 97.8

**Q:** Now consider CC(O)(CS(=O)(=O)c1ccc(F)cc1)C(=O)Nc1ccc(C#N)c(C(F)(F)F)c1 (stereo not given) [Bicalutamide] and answer again.
**A:** 90.6

====

- Tested on: HCI11
- ASSAY PROTOCOL: cell viability (% of vehicle); higher = less cytotoxic
- CONDITION LABEL: 10 µM; 72 h
OUTCOME MEASURE: cell viability
The reply should be a number, written without any unit.

**Q:** # get_value(readout='cell viability', item= O=P1(N(CCCl)CCCl)NCCCO1 (stereo not drawn) [Cyclophosphamide] )
**A:** 88.5

**Q:** Now consider `O=S(=O)(F)Cc1ccccc1` and answer again.
**A:** 92.5

**Q:** Now consider O.O=P1(N(CCCl)CCCl)NCCCO1 (stereo not drawn) [Cyclophosphamide monohydrate] and answer again.
**A:** 125

**Q:** Now consider Nc1nc(N)nc(NC2CC2)n1 [Cyromazine] and answer again.
**A:** 97.8

**Q:** Now consider CC(=O)O[C@@]12CO[C@@H]1C[C@@H](O)[C@@]1(C)C(=O)[C@@H](O)C3=C(C)[C@@H](O)C[C@@](O)([C@@H](OC(=O)c4ccccc4)[C@H]21)C3(C)C [10-DAB (10-Deacetylbaccatin)] and answer again.
**A:** 108

**Q:** Now consider CN(C)C(=O)Oc1ccc[n+](C)c1.[Br-] [Pyridostigmine Bromide] and answer again.
**A:** 92.1

**Q:** Now consider CC(C)CC(CN)CC(=O)O (stereo not drawn) [Pregabalin] and answer again.
**A:** 95.6

**Q:** Now consider C[N+](C)(C)CC(=O)O.[Cl-] [Betaine hydrochloride] and answer again.
**A:** 103

**Q:** Now consider C[N+](C)(C)CCCCCCCCCC[N+](C)(C)C.[Br-].[Br-] [Decamethonium Bromide] and answer again.
**A:** 102

**Q:** Now consider CCCCCCCCCCCCCCCC[N+](C)(C)C.[Br-] [Cetrimonium Bromide (CTAB)] and answer again.
**A:** 72

**Q:** Now consider Cc1cc(C(C#N)c2ccc(Cl)cc2)c(Cl)cc1NC(=O)c1cc(I)cc(I)c1[O-].[Na+] (stereo not drawn) [Closantel Sodium] and answer again.
**A:** 93.2

**Q:** Now consider CCCC1CC(=O)N(C(CC)C(N)=O)C1 (stereo not drawn) [Brivaracetam] and answer again.
**A:** 89.3

**Q:** Now consider CCOC(=O)c1cncn1C(C)c1ccccc1 (stereo not drawn) [Etomidate] and answer again.
**A:** 90.1

The origin of these recorded values is the supplement of paper PMC6992640.
